Source: ChEMBL document CHEMBL1201862

Biological target: Disintegrin and metalloproteinase domain-containing protein 17 (Homo sapiens, UniProt P78536)
Sequence (P78536 whole entry, the tested form may be a part): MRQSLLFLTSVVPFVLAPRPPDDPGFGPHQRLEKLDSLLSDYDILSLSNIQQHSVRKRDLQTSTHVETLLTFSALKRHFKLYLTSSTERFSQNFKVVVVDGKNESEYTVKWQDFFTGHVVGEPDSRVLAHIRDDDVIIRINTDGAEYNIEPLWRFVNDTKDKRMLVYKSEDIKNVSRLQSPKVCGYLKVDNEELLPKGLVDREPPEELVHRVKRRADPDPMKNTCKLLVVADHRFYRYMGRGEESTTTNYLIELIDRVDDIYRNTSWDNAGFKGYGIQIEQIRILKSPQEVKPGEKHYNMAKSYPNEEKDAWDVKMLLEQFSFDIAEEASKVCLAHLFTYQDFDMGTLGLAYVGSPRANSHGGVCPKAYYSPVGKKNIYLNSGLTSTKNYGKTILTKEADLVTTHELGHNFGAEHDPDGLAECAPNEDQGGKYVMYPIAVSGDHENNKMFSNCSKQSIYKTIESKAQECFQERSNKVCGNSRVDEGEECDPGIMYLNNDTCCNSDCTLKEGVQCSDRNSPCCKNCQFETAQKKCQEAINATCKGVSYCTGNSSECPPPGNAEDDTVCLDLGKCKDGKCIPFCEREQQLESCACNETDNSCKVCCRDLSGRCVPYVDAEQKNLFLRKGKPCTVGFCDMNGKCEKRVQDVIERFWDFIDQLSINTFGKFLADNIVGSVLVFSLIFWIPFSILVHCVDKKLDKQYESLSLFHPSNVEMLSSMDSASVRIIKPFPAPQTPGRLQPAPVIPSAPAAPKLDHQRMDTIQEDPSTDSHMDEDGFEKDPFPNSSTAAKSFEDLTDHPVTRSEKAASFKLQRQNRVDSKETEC
Experiment: exosite inhibitors of ADAM17, dose response, biochemical (AID 743260)
Calls of active or inactive are those of the source.
Entries annotated with measured IC50
TEST_READOUT: IC50

1. COc1cc(OC)cc(-c2cn[nH]c2N)c1 : > 69.5 µM (inactive)
2. Cc1cccc(C(=N)NOC(=O)N2CCOCC2)c1 : > 69.5 µM (inactive)
3. CCCN1C/C(=C/c2ccc3c(c2)OCO3)C(=O)/C(=C/c2ccc3c(c2)OCO3)C1 : 19.6 µM (inactive)
4. Cc1cc(Oc2ccccc2)nc(SCC(=O)Nc2ccc(Cl)c(Cl)c2)n1 : > 69.5 µM (inactive)

====

Target: Major prion protein (Homo sapiens, UniProt P04156)
Assay type: functional, cell-based
Active and inactive are the calls of the source.
Outcomes: true (1) = active, false (0) = inactive

1. COc1ccc2[nH]c(C(=O)Nc3ccc(C)c(F)c3)cc2c1 : false (0)
2. CCOC(=O)c1c(-c2ccc(C)s2)csc1N : false (0)
3. Fc1cccc(Cc2c(-c3ccco3)nc3ccc(Br)cn23)c1 : true (1)
4. Cc1ccc(C2C(C#N)=C(N)SC(N)=C2C#N)cc1 : true (1)
5. CCc1nc(SCC(=O)Nc2nc3c(s2)CCCC3)c2ccccc2n1 : true (1)

====

Biological target: Ubiquitin-conjugating enzyme E2 N (Homo sapiens, UniProt P61088)
Sequence (P61088 whole entry): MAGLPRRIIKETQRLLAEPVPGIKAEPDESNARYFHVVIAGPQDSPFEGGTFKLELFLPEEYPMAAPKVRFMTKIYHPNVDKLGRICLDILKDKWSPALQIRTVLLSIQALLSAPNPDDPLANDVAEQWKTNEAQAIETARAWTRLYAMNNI
Type: functional
Activity calls are given as the source filed them.
Entries annotated with measured IC50
TEST_READOUT: IC50

1. CCC[C@@H](CN1CCC[C@H]1CN1C(N)=NC[C@@H]1Cc1ccccc1)N1C[C@@H]([C@H](C)CC)N(CCCC2CCCC2)C1=N : 8.52 µM (active)
2. CCN1CCN(Cc2ccc(NC(=O)c3cc(NC(=O)c4cncc(-c5ccc(C#N)cc5)c4)cc(OC)c3)cc2C(F)(F)F)CC1 : 6.69 µM (active)
3. CCN(CC)CCOC(=O)c1ccc(N/C=C(/C#N)c2nc(-c3ccc(OC)cc3)cs2)cc1 : 4.3 µM (active)
4. c1ccc(CNc2nc(NCc3ccccc3)c3ccccc3n2)cc1 : 11 µM (active)

====

Target: Glucose-6-phosphate 1-dehydrogenase (Homo sapiens)
Sequence (P11413 whole entry): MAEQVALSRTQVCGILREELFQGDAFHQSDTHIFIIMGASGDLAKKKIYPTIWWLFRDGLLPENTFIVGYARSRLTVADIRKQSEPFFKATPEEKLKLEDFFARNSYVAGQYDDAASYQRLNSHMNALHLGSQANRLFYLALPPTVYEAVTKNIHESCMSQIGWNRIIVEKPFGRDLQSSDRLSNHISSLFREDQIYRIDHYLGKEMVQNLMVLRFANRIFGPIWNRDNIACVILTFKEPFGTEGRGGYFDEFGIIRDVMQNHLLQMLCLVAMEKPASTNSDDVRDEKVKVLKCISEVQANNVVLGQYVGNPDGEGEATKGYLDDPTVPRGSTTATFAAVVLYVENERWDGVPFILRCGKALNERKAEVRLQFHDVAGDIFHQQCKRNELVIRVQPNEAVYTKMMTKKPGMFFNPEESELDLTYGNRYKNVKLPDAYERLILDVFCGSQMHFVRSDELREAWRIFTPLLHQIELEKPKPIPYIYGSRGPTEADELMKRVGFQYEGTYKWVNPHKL
Experiment: human G6PD enzyme inhibitors, dose response, selectivity assay for P. falciparum G6PD inhibitor project, biochemical, fluorescence (AID 504792)
Format: functional
Calls of active or inactive are those of the source.
Outcomes: TRUE = active, FALSE = inactive

1. O=C(N/N=C/c1cccc([N+](=O)[O-])c1)C(=O)N1CCCCCC1 : FALSE
2. O=C(Cn1sc2ccccc2c1=O)Nc1ccccc1 : TRUE
3. O=C(Nc1nnc(S(=O)(=O)N2CCCC2)s1)c1cccc([N+](=O)[O-])c1 : FALSE
4. COc1ccc(CCn2c(NN=C3CCCCC3)nc3c2c(=O)[nH]c(=O)n3C)cc1 : TRUE
5. Cc1ccc(NC(=O)c2cc(N3C(=O)C=CC3=O)ccc2N2CCOCC2)cc1Cl : FALSE
